- Test system: K4 kissing-loop RNA reporter;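 note: bound reporter read as fluorescence of individual clusters on recovered sequencing chips by microscopy, with normalized cluster intensities fitted with a binding model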
- experimentalProtocol: apparent KD of K4 kissing-loop reporter; higher = weaker reporter binding
- conditionParameters: Eterna round: R107; input ligand: FMN 200 uM

entrySequence	target	unitSpec	apparent KD of K4 kissing-loop reporter
UCUAAGGUCGAACCGGUAUGAUCACCGGAUACCAGAGGCGAAAGCCUCCCUUGGCAGCCGAGUGUAGUGAUGUUACACGGGUUCU	K4 kissing-loop RNA reporter	µM	0.166
UAAGAAUAAGUAGCAGUGAUGUUGCUACUACGAGGACCGGUACGGCCGCCACUCGAAUACGAGUGGAAGUAGCAACUACCACUCA [(H1)-(H2)-(Trp1)-(Trp2)-(T)'-(H)'-(T)''_Design7]	K4 kissing-loop RNA reporter	µM	0.114
AACUCUCACUGGAGUGAUGUUCUGGAAAACCGAGGACCGGUACGGCCGCCACUCGGAAAUGAGAGAGUCCUACGAAAAGUAGGAC [Omei inspired 1]	K4 kissing-loop RNA reporter	µM	0.191

* * *

- Test system: MS2 coat protein
- experimentalProtocol: apparent KD of MS2 coat protein; designed switch direction (-1 OFF switch, 1 ON switch): -1; higher = weaker reporter binding
- conditionParameters: Eterna round: R95; input ligand: FMN 200 uM
Values of apparent KD of MS2 coat protein greater than or equal to 20 nM map to 1 (yes); values below map to 0 (no).

entrySequence	target	labelClass
GAGAAAGCAAGCAAGUGAAACAUGAGGAUCACCCAUGUCCUCAUUUGCUCGUCUUAUAAGCUAUGCGAAAGCAUAGC [Mat - Sensor v3 - turn-off var 1 - Eli Mod - D50] (puzzle: Sensor v3, turn-off variant 1)	MS2 coat protein	0 (no)
GGGAACGUAGGAUAUACAUGAGGAUCACCCAUGUGAGGAAGGAGUAGGAAGCGUGGAAGUAGAAGGACGGAGAG [JR_Exclu3_Sub074] (puzzle: Exclusion 3)	MS2 coat protein	1 (yes)
GACCCUAGGGUCAGACCCACAAGCUUUUUGCUCGUUUUAACAUGAGGAUCACCCAUGUCUAGUGGAUCUGAUCGGGC [Geores] (puzzle: Sensor v3, turn-off variant 2)	MS2 coat protein	0 (no)
ACAAGCGAAAGGCUCGUCUUAUUUUUGUAGAGGUUCUAAACAUGAGGAUCACCCAUGUAGUGGUUAUGGUGGAGGUA [JR_SV3TOV2_Sub070] (puzzle: Sensor v3, turn-off variant 2)	MS2 coat protein	1 (yes)
AAGAACGUAGGAUAUACAUGAGGAUCACCCAUGUGAGGAAGGAGUAGGAAGCGUGGAAGUAGAAGGACGGAGAG [JR_Exclu3_Sub075] (puzzle: Exclusion 3)	MS2 coat protein	1 (yes)

* * *

Entries and their measured apparent KD of MS2 coat protein follow.
- Test system: MS2 coat protein
- experimentalProtocol: apparent KD of MS2 coat protein, switch OFF state (with FMN for OFF switches, without FMN for ON switches); designed switch direction (-1 OFF switch, 1 ON switch): 1; higher = weaker reporter binding
- conditionParameters: FMN input: 0 or 200 uM; Eterna round: R93 (includes R88 designs)
attributeMeasured: apparent KD of MS2 coat protein (nM)

entrySequence	measuredResult
AGGAGACAUGAGGAUCACCCAUGUAGAAGGAUGGGAGGAUAUACAAAGACGAGAGUCAGAGUAGAAGGCCUAGGAA [salish99-ss1-182(!)]	55.4
AAAAAACAUGAGGAUCACCCAUGUAAAAAAAUGGGAGGAUAUCUGAAUUAAUUAAAUUAAGGAGAAGGCCUAAAAA [71%, Same state of confusion2, 4]	425
AAUACACAUAGUCAGGAUAUCAAAAAUAAGACAUGAGGAUCACCCAUGUAAUAAGUAAAAGUAAAUGAGAAGGGACAGGGUGACC [JR_SS002_Sub403]	199
AAAAAACAUGAGGAUCACCCAUGUAGAAAUAUGGGAGGAUAUACAAAGACGAAAGUCAAAGUAGAAGGCCUAAAAA [77%, Mat - Mod of Eli, 2]	57.8
AAAACACAUGAGGAUCACCCAUGUAAAAACAUGAGAGGAUAUGCAUGGAAAAAAAACUAUGCAGAAGGCUCAUGUG [SS1 - 4]	32.2
AUAAAACAUGAGGAUCACCCAUGUAAAAAUAUGGAAGGAUAUACGUAGUAAAAUAAAUACGUAGAAGGUCCAAAAA [SS! MT 21]	19.7
ACUAUACAUGAGGAUCACCCAUGUUAGGUGGGACUAGGAUAUCAAAAGCCAGAGUAAGAAUGAGAAGGAGUAGAAA [JR_SS001_Sub301]	34.8
AAAGAAUGAAGGCAGGAUAUGUGAAAAAAAACAUGAGGAUCACCCAUGUAAUAAAUGGGUACAAAACAGAAGGGCCAAGAAACAA [SS 2 Tesla 3]	700
GUAUGCAUGAGGUAGGAUAUCCAAAACAAAACAUGAGGAUCACCCAUGUAAACAAACAACAAAUGGGAGAAGGACCACAUGUAUAC [Ex6 sub 5]	27.1
UAAUAAUAAACCAAGGAUAUGGAGUAAAGAACAUGAGGAUCACCCAUGUGUAGCGUGGAAUAGUACCAGAAGGUGGAGUGAAAUG [JR_SS002_Sub1003]	52.3
AGAAAACAUGAGGAUCACCCAUGUAGAAAUAUGGGAGGAUAUACGAAGACGAAAGUCAAAGUAGAAGGCCUAAGAA [Mat - Same State 1 - Eli mod - D108]	51.7
CAGGACCUAGGAUAGGAUAUAUGAAUAAUUACAUGAGGAUCACCCAUGUCCAUUUAUAUGGGAACAUAGAAGGGUUGUGGUUAUG [Mat - Same state - Malcolm Mod - D133]	118
ACAAACAAAAAAGAGGAUAUCCUAAACAAAACAUGAGGAUCACCCAUGUAAAAAAAAAUAAAAUGGGAGAAGGCUUACAACAAAC [SS2 M 23]	51.7
AAAAGACAUGAGGAUCACCCAUGUCAAAACGUAGGAGGAUAUGUCGUGAAAAAAGACUUGACAGAAGGCCUGUGUC [SS1 - 36]	17.1
AAAAAACAUGAGGAUCACCCAUGUGAAAAAUUCGCAGGAUAUCCCUUUUUUAAAUGGGAGGGAGAAGGGUGAAAAA [Nob's Hobby 16 - Jieux - Same State 1]	112
GAAAAACAUGAGGAUCACCCAUGUAGAAAUAUGGGAGGAUAUACAAAGACGAAAGUCGAAGUAGAAGGCCUAAAAG [Mat - Same State 1 - Eli mod - D23]	66.8
GAAAAACAUGAGGAUCACCCAUGUGGAAAUAUGGGAGGAUAUACGAAGACGAAAGUCGAAGUAGAAGGCCUAAAAG [Same State 1.4d (Mat - Mod of Eli - )]	98.1
AAAAAACAUGAGGAUCACCCAUGUGAGAAUAUGGAAGGAUAUACAAAGACGAAAGUCAAAGUAGAAGGUCUAAAAG [Mat - Same State 1 - Eli mod - D90]	31.5
GAAAAACAUGAGGAUCACCCAUGUAAGAUAAACACAGGAUAUGCGAAAAUAAACAAAUAAGCAGAAGGGUGAAAAG [Mat - Same State 1 - Tesla mod - 77]	47.4
AAAACACAUGAGGAUCACCCAUGUAGAAAUACGGGAGGAUAUGCAAAAACGAAAGACAAAGUAGAAGGCCUAAAAG [saturn 9]	67
AAGAAACAUGAGGAUCACCCAUGUACCCAAAAGGCAGGAUAUGGGAAAGAAAGAAAGAAACCAGAAGGGCCAUGAA [Sogdianus]	57.1
AGAAAUAAAGCUGAGGAUAUGGGUAAAUACACAUGAGGAUCACCCAUGUAAAAGAAAAUAAAAAACCAGAAGGCAGCAAAUAAGA [Designing denovo 4]	30.8
AAGAACGUGGUGUAGGAUAUACUAAUAGUCACAUGAGGAUCACCCAUGUUCAUAUAUAUGAACGAGUAGAAGGACGACGAAAAAA [Mat - Same state - Malcolm Mod - D107]	147
GGCAGUCCGACACAGGAUAUGGGUAACGAAACAUGAGGAUCACCCAUGUGGAAACAUCGGGUUGCCUAGAAGGGUGGAAAGAUUG [Xeti]	259
AGAAAUAAAAGACAGGAUAUCCAAAACUCAACAUGAGGAUCACCCAUGUAAAAGAAAAUAAAAUGGGAGAAGGGUCAAAAUAAGA [Jieux modified + C segment V2]	33.8
AAAUGAUCAUGUGAGGAUAUCCAUAAUAAAACAUGAGGAUCACCCAUGUAUAGAUAAUAAUAAUGGGAGAAGGCACAUGAUCAAU [Mat - Same state - Mayanna Mod - D103]	17.2
